METHOD DESCRIPTION: qHTS assay to identify small molecule HDAC inhibitors (AID 1259364);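 also: wild-type HCT-116 cells with endogenous class I/II HDAC activity; top concentration of the series differs between compounds; nearly all actives have a fitted effect of over 45% in size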
PROTOCOL CONDITIONS: HCT-116 HDAC-Glo I/II luminescence, 2 h; series mostly up to 92.4 µM
Inconclusive results are not listed. The source made the active and inactive calls. Calls follow the shape of the dose curve; as a rule, active = well fitted inhibition curve with a large enough effect in the repeat runs; inconclusive = weak or mixed curves; inactive = flat fitted curve, though single readings scatter.
Your response should consist of one outcome taken from y = active, n = inactive

Answered cases to consult:
{"COMPOUND": "COc1cc(C(C)(C)C)c(O)c(C(C)(C)C)c1", "ASSIGNED LABEL": "n"}
{"COMPOUND": "CCCCCCCCCC=O", "ASSIGNED LABEL": "n"}
{"COMPOUND": "CC(O)C1CCCCC1 (centres undefined)", "ASSIGNED LABEL": "n"}

Now let's try a different one.
Fill in: this test's call for Cc1c(Cn2ccnc2)c2ccccc2n1CCC(=O)O is ___
n

----------
TARGET OR TEST SYSTEM: Aromatase (Homo sapiens)
METHOD DESCRIPTION: qHTS assay to identify aromatase inhibitors (AID 743083); also: nearly all actives have a fitted effect of over 55% in size
PROTOCOL CONDITIONS: MCF-7 aro ERE, testosterone-driven ERE luciferase, 24 h; series mostly up to 70.3 µM
Results filed as inconclusive are left out. The source made the active and inactive calls. Calls come from the whole dose curve; as a rule, active = well fitted inhibition curve with a large enough effect in the repeat runs; inconclusive = weak or mixed curves; inactive = no such curve, though single readings can be large or run the other way.
Outcome (select one): TRUE for active, FALSE for inactive

Dear all, I need the recorded test outcome for Cc1cc(NC(=O)C(=O)O)cc(C)c1Oc1ccc(O)c2c1CCC2 , thank you.
FALSE

Could you check what this test reported for CC(C)NCC(O)c1cc(O)cc(O)c1 (stereo unspecified) ?
FALSE

What was the test verdict on CC(Cc1cccc(C(F)(F)F)c1)NCCOC(=O)c1ccccc1 (stereo unspecified) ?
TRUE

For CCCCOCCOCCOCCOCCO , what call appears in the results of this test?
FALSE

Assay outcome for O=C(c1ccc(O)cc1)c1ccc(O)cc1 : what was it?
FALSE

Tell me the recorded outcome of this test for CC(O)C1CCCCC1 (stereo unspecified) .
FALSE

----------
METHOD DESCRIPTION: qHTS RealTime-Glo MT Cell Viability Assay in HepG2 cells - 16 hour (AID 1224885); also: nearly all actives have a fitted effect of over 50% in size
PROTOCOL CONDITIONS: RealTime-Glo luminescence; series mostly up to 76.8 µM
Results filed as inconclusive are left out. The source made the active and inactive calls. Calls come from the whole dose curve; as a rule, active = well fitted cell-killing curve with a large enough effect in the repeat runs; inconclusive = weak or mixed curves; inactive = flat fitted curve, though single readings scatter.
EXPERIMENTAL ENDPOINT: activity change, negative = cytotoxic

Examples with answers:
{"COMPOUND": "Cl/C(=C\\n1cncn1)c1ccc(Cl)cc1Cl", "EXPERIMENTAL RESULT": "inactive"}
{"COMPOUND": "CCCCCCCCCCCCCCC1CO1 (stereo not given)", "EXPERIMENTAL RESULT": "inactive"}
{"COMPOUND": "CCCCCc1ccc(N)cc1", "EXPERIMENTAL RESULT": "inactive"}
{"COMPOUND": "COc1ccc(C(C)=O)cc1", "EXPERIMENTAL RESULT": "inactive"}

Turning now to a further compound:
I'd like to know its activity change, negative = cytotoxic. The compound in question is CCCCCC/C=C/C=O
inactive

----------
TARGET OR TEST SYSTEM: Nuclear receptor subfamily 1 group I member 3 (Homo sapiens)
METHOD DESCRIPTION: qHTS assay to identify small molecule agonists of the constitutive androstane receptor (CAR) signaling pathway (AID 1224839); also: nearly all actives have a fitted effect of over 15% in size;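 as to activation: HepG2 cells stably carrying human CAR and a CYP2B6 luciferase reporter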
PROTOCOL CONDITIONS: HepG2 hCAR CYP2B6-luciferase, agonist mode, 24 h; series mostly up to 92.4 µM
Inconclusive results are not listed. Activity calls are given as the source filed them. Calls follow the shape of the dose curve; as a rule, active = well fitted activation curve with a large enough effect in the repeat runs; inconclusive = weak or mixed curves; inactive = no such curve, though single readings can be large or run the other way.
Could you please pick one outcome from this set? Y (active), N (inactive)

{"COMPOUND": "CCCCCCCC/C=C\\CCCCCCCC(N)=O", "ASSIGNED LABEL": "N"}
{"COMPOUND": "CC(C)(C)C1CCCCC1O (centres undefined)", "ASSIGNED LABEL": "N"}
{"COMPOUND": "Oc1ccc(O)c2c(O)cccc12", "ASSIGNED LABEL": "N"}

I would be grateful if you could indicate the recorded call for CCOc1cc(OCC)c(C(=O)CCC(=O)O)cc1OCC .
N

Just curious, what result did Cc1cccc(OCCOc2cccc(C)c2)c1 get here?
Y

Short answer needed: outcome of this test for COc1ccccc1OC(=O)Oc1ccccc1OC ?
N

# lookup: test call for Nc1ccc(C(=O)N2CC3CC(CN(Cc4ccccc4)C3)C2)cc1
N

Please share the test call associated with CC(C(=O)O)c1ccc(C(=O)c2ccccc2)s1 (centres undefined) .
Y

Can you look up the reported call for CC1=CC(=O)/C(=C(/C)O)C(=O)O1 for me?
N

Which outcome did this test record for the compound Cc1cc(C)c(S(=O)(=O)O)cc1N=Nc1cc(S(=O)(=O)O)c2ccccc2c1O ?
N
